experiment: yeast display, Sf9 membrane polyspecificity reagent, FACS + sequencing; frameworks hold sequencing errors
Property Measured: polyreactivity (PSR sort gate)

- Sequence Entry: "QVQLVESGGGLVQAGGSLRLSCAASGFIFTDNAMGWYRQAPGKESEFVAAITYSGGSTYYADSVKGRFTISRDNAKNTVYLQMNSLKPEDTAVYYCNKDFFPAPVVVTAYEYEYWGQGSQVTVSS"
  Assay Value: "low polyreactivity"
- Sequence Entry: "QVQLVESGGGLVQAGGSLRLSCAASGRIFGLYAMGWYRQAPGKERELVAAISRGGGSTYYADSVKGRFTISRDNAKNTVYLQMNSLKPEDTAVYYCATGLGYFSRLDYWGQGTLVTVSS"
  Assay Value: "low polyreactivity"
